// each record: one item and its pIC50 for Peptidyl-prolyl cis-trans isomerase FKBP1A (Homo sapiens, UniProt P62942)
Kindly note that pIC50 refers to -log10 of the concentration in mol/L and answer with the value alone.

Record excerpt, results attached:
[Q] Provide pIC50, tested on Peptidyl-prolyl cis-trans isomerase FKBP1A (Homo sapiens, UniProt P62942), for C[C@@H]1C[C@@H]([C@H](O)CC2CC(=O)N(CC(N)=O)C(=O)C2)C(=O)[C@@H](C)C1 .
Sequence (P62942 whole entry): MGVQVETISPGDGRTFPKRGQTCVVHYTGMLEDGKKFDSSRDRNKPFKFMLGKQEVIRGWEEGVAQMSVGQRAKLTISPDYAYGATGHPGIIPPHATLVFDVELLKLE
[A] 4.67

[Q] Provide pIC50, tested on Peptidyl-prolyl cis-trans isomerase FKBP1A (Homo sapiens, UniProt P62942), for CCOC(=O)CN1C(=O)CC(C[C@@H](O)[C@@H]2C[C@@H](C)C[C@H](C)C2=O)CC1=O .
[A] 5.36

[Q] Provide pIC50, tested on Peptidyl-prolyl cis-trans isomerase FKBP1A (Homo sapiens, UniProt P62942), for C[C@@H]1C[C@@H]([C@H](O)CC2CC(=O)N(C)C(=O)C2)C(=O)[C@@H](C)C1 .
[A] 3.91

[Q] Provide pIC50, tested on Peptidyl-prolyl cis-trans isomerase FKBP1A (Homo sapiens, UniProt P62942), for CCOC(=O)CCCN1C(=O)CC(C[C@@H](O)[C@@H]2C[C@@H](C)C[C@H](C)C2=O)CC1=O .
[A] 4.65

[Q] Provide pIC50, tested on Peptidyl-prolyl cis-trans isomerase FKBP1A (Homo sapiens, UniProt P62942), for C[C@@H]1C[C@@H]([C@H](O)CC2CC(=O)NC(=O)C2)C(=O)[C@@H](C)C1 [CYCLOHEXIMIDE] .
[A] 5.44

Next:
[Q] Provide pIC50, tested on Peptidyl-prolyl cis-trans isomerase FKBP1A (Homo sapiens, UniProt P62942), for C[C@@H]1C[C@@H]([C@H](O)CC2CC(=O)N(Cc3ccc(C#N)cc3)C(=O)C2)C(=O)[C@@H](C)C1 .
[A] 4.17
